Please respond with reported binding ratio vs parent P54AR4-83v2 for every item in the list.
Molecular target: EGFR (form in the assay not stated) (human, UniProt P00533 25-645, limits assumed)
Experiment: ELISA, NEM conjugate 500 nM
Please answer in the form of a number followed by its unit of measurement.

Given item P54AR4-83v2 D23C, NEM conjugate (designed binder, NEM on Cys 23, His-tagged) LPAPKNLVVSEVTEDSARLSWDCPWAFYESFLIQYQESEKVGEAIVLTVPGSERSYDLTGLKPGTEYTVSIYGVHNVYKDTNMRGLPLSAIFTT , the value recorded as its binding ratio vs parent P54AR4-83v2 is 0.4 ratio

Kindly note the recorded binding ratio vs parent P54AR4-83v2 for P54AR4-83v2 V74C, NEM conjugate (designed binder, NEM on Cys 74, His-tagged) LPAPKNLVVSEVTEDSARLSWDDPWAFYESFLIQYQESEKVGEAIVLTVPGSERSYDLTGLKPGTEYTVSIYGCHNVYKDTNMRGLPLSAIFTT , which is 0.95 ratio

// field: binding ratio vs parent P54AR4-83v2; key: P54AR4-83v2 M83C, NEM conjugate (designed binder, NEM on Cys 83, His-tagged) LPAPKNLVVSEVTEDSARLSWDDPWAFYESFLIQYQESEKVGEAIVLTVPGSERSYDLTGLKPGTEYTVSIYGVHNVYKDTNCRGLPLSAIFTT ; value = 0.24 ratio

Given item P54AR4-83v2 T81C, NEM conjugate (designed binder, NEM on Cys 81, His-tagged) LPAPKNLVVSEVTEDSARLSWDDPWAFYESFLIQYQESEKVGEAIVLTVPGSERSYDLTGLKPGTEYTVSIYGVHNVYKDCNMRGLPLSAIFTT , the value recorded as its binding ratio vs parent P54AR4-83v2 is 1.02 ratio

// binding ratio vs parent P54AR4-83v2 value for P54AR4-83v2 T93C, NEM conjugate (designed binder, NEM on Cys 93, His-tagged) LPAPKNLVVSEVTEDSARLSWDDPWAFYESFLIQYQESEKVGEAIVLTVPGSERSYDLTGLKPGTEYTVSIYGVHNVYKDTNMRGLPLSAIFCT : 1.04 ratio

// sample P54AR4-83v2 I91C, NEM conjugate (designed binder, NEM on Cys 91, His-tagged; also called 191C) LPAPKNLVVSEVTEDSARLSWDDPWAFYESFLIQYQESEKVGEAIVLTVPGSERSYDLTGLKPGTEYTVSIYGVHNVYKDTNMRGLPLSACFTT , its binding ratio vs parent P54AR4-83v2 was 1 ratio

Record P54AR4-83v2 Y78C, NEM conjugate (designed binder, NEM on Cys 78, His-tagged) LPAPKNLVVSEVTEDSARLSWDDPWAFYESFLIQYQESEKVGEAIVLTVPGSERSYDLTGLKPGTEYTVSIYGVHNVCKDTNMRGLPLSAIFTT , field binding ratio vs parent P54AR4-83v2: 0.68 ratio

Per the record, P54AR4-83v2 K62C, NEM conjugate (designed binder, NEM on Cys 62, His-tagged) LPAPKNLVVSEVTEDSARLSWDDPWAFYESFLIQYQESEKVGEAIVLTVPGSERSYDLTGLCPGTEYTVSIYGVHNVYKDTNMRGLPLSAIFTT has binding ratio vs parent P54AR4-83v2 of 0.61 ratio

Looking up P54AR4-83v2 E53C, NEM conjugate (designed binder, NEM on Cys 53, His-tagged) LPAPKNLVVSEVTEDSARLSWDDPWAFYESFLIQYQESEKVGEAIVLTVPGSCRSYDLTGLKPGTEYTVSIYGVHNVYKDTNMRGLPLSAIFTT , I see its binding ratio vs parent P54AR4-83v2 listed as 0.91 ratio
